- target-of-assay: RORγ (Homo sapiens, UniProt P51449)
- Sequence (P51449 whole entry, looked up, the tested form may be a part): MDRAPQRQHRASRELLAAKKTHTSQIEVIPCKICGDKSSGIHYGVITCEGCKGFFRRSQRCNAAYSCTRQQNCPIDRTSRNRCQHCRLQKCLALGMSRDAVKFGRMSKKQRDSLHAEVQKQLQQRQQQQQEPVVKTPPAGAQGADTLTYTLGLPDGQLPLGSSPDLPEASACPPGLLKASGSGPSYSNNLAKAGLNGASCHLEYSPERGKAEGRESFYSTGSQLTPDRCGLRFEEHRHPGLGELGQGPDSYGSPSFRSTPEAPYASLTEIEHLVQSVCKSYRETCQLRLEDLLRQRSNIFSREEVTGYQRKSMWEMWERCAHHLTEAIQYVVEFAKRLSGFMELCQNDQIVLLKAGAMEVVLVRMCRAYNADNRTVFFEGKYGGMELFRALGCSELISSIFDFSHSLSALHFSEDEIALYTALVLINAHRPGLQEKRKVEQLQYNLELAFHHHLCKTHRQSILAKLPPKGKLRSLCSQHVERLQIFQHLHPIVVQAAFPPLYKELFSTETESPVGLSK
- experiment-description: RORγ Gal4 Reporter Gene Assay
- Assay type: cell-based
- run-parameters: renilla normalised (RENnorm) luciferase, 293T cells
Reported pIC50 (REN) values for the following molecules.
quantity-name: pIC50 (REN)

molecule=CC(C)(C)NS(=O)(=O)c1ccc(-c2sc(C(=O)N[C@H]3C[C@H](C(=O)O)C3)nc2CC2CCCCC2)c2ccccc12 observed_measurement=9.0
molecule="CC(C)(C)c1cc(-c2sc(C(=O)NC3CC(C(=O)O)C3)nc2CC2CCCCC2)nc(C(C)(C)C)n1 (stereo not shown)" observed_measurement=6.9
molecule=CC(C)(C)c1cc(-c2sc(C(=O)N[C@H]3C[C@H](C(=O)O)C3)nc2CC2CCCCC2)cc(C(C)(C)F)c1 observed_measurement=7.5
